# Study Target: T1, human TNFR1 (human, UniProt P19438)
# T1 chain: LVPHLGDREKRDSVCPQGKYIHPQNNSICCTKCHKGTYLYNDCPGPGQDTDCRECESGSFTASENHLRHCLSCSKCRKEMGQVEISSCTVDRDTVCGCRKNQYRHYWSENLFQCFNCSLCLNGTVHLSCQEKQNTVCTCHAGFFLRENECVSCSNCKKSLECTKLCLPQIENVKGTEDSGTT
# Test Summary: ELISA
Parameter Measured: EC50 (nM)

binder="DOM1H-131-206 P14E (antibody, V domains shown) VH: EVQLLESGGGLVQEGGSLRLSCAASGFTFAHETMVWVRQAPGKGLEWVSHIPPDGQDPFYADSVKGRFTISRDNSKNTLYLQMNSLRAEDTAVYHCALLPKRGPWFDYWGQGTLVTVSS" parameter_measured=EC50 result=0.64
binder="DOM1H-131-206 P14T + C-terminal ASTKG (antibody, V domains shown) VH: EVQLLESGGGLVQTGGSLRLSCAASGFTFAHETMVWVRQAPGKGLEWVSHIPPDGQDPFYADSVKGRFTISRDNSKNTLYLQMNSLRAEDTAVYHCALLPKRGPWFDYWGQGTLVTVSS" parameter_measured=EC50 result=0.72
binder="DOM1H-131-206 P14K + C-terminal ASTKG (antibody, V domains shown) VH: EVQLLESGGGLVQKGGSLRLSCAASGFTFAHETMVWVRQAPGKGLEWVSHIPPDGQDPFYADSVKGRFTISRDNSKNTLYLQMNSLRAEDTAVYHCALLPKRGPWFDYWGQGTLVTVSS" parameter_measured=EC50 result=0.48
binder="DOM1H-131-206 C-terminal AST (antibody, V domains shown) VH: EVQLLESGGGLVQPGGSLRLSCAASGFTFAHETMVWVRQAPGKGLEWVSHIPPDGQDPFYADSVKGRFTISRDNSKNTLYLQMNSLRAEDTAVYHCALLPKRGPWFDYWGQGTLVTVSS" parameter_measured=EC50 result=1.99
